Data provenance is the supplement of paper PMC11732987.

experimental.target: OTUD6B (UniProt Q8N6M0)
Sequence (Q8N6M0 whole entry, the tested form may be a part): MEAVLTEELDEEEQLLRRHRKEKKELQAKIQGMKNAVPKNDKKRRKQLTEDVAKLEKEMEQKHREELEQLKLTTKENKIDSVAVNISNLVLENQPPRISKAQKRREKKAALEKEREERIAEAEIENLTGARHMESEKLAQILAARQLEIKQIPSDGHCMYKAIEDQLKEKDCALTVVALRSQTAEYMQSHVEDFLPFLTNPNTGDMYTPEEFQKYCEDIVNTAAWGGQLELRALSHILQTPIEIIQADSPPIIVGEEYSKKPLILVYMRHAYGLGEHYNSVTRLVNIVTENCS
assay.comment: log2 ratio of Biotin-Ahx-Ub-VS probe labelling (fragment/DMSO); higher = less target engagement (more negative = stronger competition), active = hit call of the paper (q ≤ 0.05, log2 ratio ≤ -1)
conditions: compound concentration: 200 uM; treatment time: 3 h
Classify as follows. Reported log2 ratio of Biotin-Ahx-Ub-VS probe labelling greater than or equal to -0.2: Satisfied. Reported log2 ratio of Biotin-Ahx-Ub-VS probe labelling below: Not satisfied.

Field: example entries. Status: answers known.
compound | experimental.target | classification
CCCn1nccc1NC(=O)CCl | OTUD6B (UniProt Q8N6M0) | Satisfied
C/C(=C\CNC(=O)CCl)c1cnn(C)c1.Cl | OTUD6B (UniProt Q8N6M0) | Satisfied

INPUT: I'd appreciate it if you could say whether O=C(CCl)NC1CCC(C(F)(F)F)CC1 (configuration not stated) has log2 ratio of Biotin-Ahx-Ub-VS probe labelling at least equal to -0.2.
OUTPUT: Satisfied

INPUT: I'd appreciate it if you could say whether Cc1ccc(CNC(=O)CCl)nc1C.Cl has log2 ratio of Biotin-Ahx-Ub-VS probe labelling at least equal to -0.2.
OUTPUT: Satisfied

INPUT: I'd appreciate it if you could say whether O=C(CCl)Nc1ccccc1C(F)(F)F has log2 ratio of Biotin-Ahx-Ub-VS probe labelling at least equal to -0.2.
OUTPUT: Not satisfied

INPUT: I'd appreciate it if you could say whether Cc1cnc2[nH]cc(CCNC(=O)CCl)c2c1 has log2 ratio of Biotin-Ahx-Ub-VS probe labelling at least equal to -0.2.
OUTPUT: Satisfied

INPUT: I'd appreciate it if you could say whether Cl.O=C(CCl)N1CCn2cncc2C1 has log2 ratio of Biotin-Ahx-Ub-VS probe labelling at least equal to -0.2.
OUTPUT: Not satisfied

----------
experimental.target: USP7 (UniProt Q93009)
Sequence (Q93009 whole entry, looked up, the tested form may be a part): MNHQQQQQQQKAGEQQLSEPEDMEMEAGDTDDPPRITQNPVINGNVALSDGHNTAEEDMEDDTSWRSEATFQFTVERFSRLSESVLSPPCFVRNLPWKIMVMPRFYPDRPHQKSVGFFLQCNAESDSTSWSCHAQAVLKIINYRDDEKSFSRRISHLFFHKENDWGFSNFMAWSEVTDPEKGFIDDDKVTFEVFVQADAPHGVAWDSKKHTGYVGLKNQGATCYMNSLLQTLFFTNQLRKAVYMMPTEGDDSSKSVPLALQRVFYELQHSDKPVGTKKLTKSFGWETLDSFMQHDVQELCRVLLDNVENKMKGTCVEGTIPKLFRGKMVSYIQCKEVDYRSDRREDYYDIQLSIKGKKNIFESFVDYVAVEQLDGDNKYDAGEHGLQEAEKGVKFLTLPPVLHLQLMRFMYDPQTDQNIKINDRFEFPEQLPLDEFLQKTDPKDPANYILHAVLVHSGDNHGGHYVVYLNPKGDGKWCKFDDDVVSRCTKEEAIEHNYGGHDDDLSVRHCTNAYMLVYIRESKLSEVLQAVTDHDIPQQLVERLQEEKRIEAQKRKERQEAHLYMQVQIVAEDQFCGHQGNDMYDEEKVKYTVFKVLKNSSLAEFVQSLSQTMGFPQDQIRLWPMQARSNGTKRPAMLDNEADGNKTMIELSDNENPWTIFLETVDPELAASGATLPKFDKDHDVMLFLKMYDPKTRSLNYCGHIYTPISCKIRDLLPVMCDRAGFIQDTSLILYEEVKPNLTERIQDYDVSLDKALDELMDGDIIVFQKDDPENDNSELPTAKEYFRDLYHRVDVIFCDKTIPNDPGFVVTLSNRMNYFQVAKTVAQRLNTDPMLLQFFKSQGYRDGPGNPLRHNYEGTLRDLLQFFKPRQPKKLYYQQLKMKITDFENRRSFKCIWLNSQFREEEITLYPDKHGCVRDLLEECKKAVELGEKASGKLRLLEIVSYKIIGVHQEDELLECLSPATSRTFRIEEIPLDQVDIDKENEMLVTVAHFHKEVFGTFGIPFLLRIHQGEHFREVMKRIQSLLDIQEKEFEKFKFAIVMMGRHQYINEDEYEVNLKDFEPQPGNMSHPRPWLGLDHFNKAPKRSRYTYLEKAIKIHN
assay.comment: log2 ratio of Biotin-Ahx-Ub-VS probe labelling (fragment/DMSO); higher = less target engagement (more negative = stronger competition), active = hit call of the paper (q ≤ 0.05, log2 ratio ≤ -1)
conditions: compound concentration: 200 uM; treatment time: 3 h
log2 ratio of Biotin-Ahx-Ub-VS probe labelling: recorded values
Respond using a number only.

Worked cases, log2 ratio of Biotin-Ahx-Ub-VS probe labelling given:
compound | number
CC(NC(=O)CCl)c1csc(-c2ccccc2)n1.Cl (stereo not drawn) | -0.457
Cc1ccc(N(C(=O)CCl)C2C=CS(=O)(=O)C2)cc1 (stereo not drawn) | -1.19
O=C(CCl)N1CCC(c2ccn[nH]2)C1 (stereo not drawn) | -0.384
Cl.O=C(CCl)NCc1ccnc(Oc2ccccc2F)c1 | -0.357
Cc1cccc(NC(=O)[C@@H]2CCCN2C(=O)CCl)n1 | -0.502
O=C(CCl)Nc1ccc2c(c1)OC(F)(F)O2 | -0.296
Cc1ccc(CC(CO)CNC(=O)CCl)cc1 (stereo not drawn) | -0.381
Cc1c(NC(=O)CCl)c(=O)n(-c2ccccc2)n1C | -0.431
O=C(CCl)NCc1cccc(F)c1 | -0.069
Cc1ccc(CN(C)C(=O)CCl)o1 | -0.538

The compound O=C(CCl)N1CCc2sccc2C1 showed log2 ratio of Biotin-Ahx-Ub-VS probe labelling equal to -1.34

The compound CN(C)C(=O)c1ccc(NC(=O)CCl)cc1 showed log2 ratio of Biotin-Ahx-Ub-VS probe labelling equal to -0.0714

The compound CCC(NC(=O)CCl)c1ccc(Cl)cc1 (stereo not drawn) showed log2 ratio of Biotin-Ahx-Ub-VS probe labelling equal to -0.195

----------
experimental.target: EIF3H (UniProt O15372)
Sequence (O15372 whole entry, the tested form may be a part): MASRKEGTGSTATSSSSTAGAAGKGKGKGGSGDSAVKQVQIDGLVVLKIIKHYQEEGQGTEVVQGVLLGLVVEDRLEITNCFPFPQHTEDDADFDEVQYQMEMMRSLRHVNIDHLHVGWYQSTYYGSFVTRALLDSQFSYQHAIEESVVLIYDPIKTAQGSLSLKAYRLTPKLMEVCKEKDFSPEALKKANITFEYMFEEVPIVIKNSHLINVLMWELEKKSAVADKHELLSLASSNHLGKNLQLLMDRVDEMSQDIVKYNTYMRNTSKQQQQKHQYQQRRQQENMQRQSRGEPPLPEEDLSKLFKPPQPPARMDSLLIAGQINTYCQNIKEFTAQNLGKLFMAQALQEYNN
assay.comment: log2 ratio of Biotin-Ahx-Ub-VS probe labelling (fragment/DMSO); higher = less target engagement (more negative = stronger competition), active = hit call of the paper (q ≤ 0.05, log2 ratio ≤ -1)
conditions: compound concentration: 200 uM; treatment time: 3 h
endpoint: log2 ratio of Biotin-Ahx-Ub-VS probe labelling

Worked cases, log2 ratio of Biotin-Ahx-Ub-VS probe labelling given:
molecule | experimental.target | result
O=C(CCl)N1CC2(CCOCC2)C1 | EIF3H (UniProt O15372) | 0.061 (inactive)
Cc1ccc(-c2nnc(C)[nH]2)c(NC(=O)CCl)c1 | EIF3H (UniProt O15372) | 0.0246 (inactive)
CC1(NC(=O)CCl)CCS(=O)(=O)C1 (centres undefined) | EIF3H (UniProt O15372) | 0.186 (inactive)
O=C(CCl)N1CC=C(c2c[nH]c3ccccc23)CC1 | EIF3H (UniProt O15372) | 0.184 (inactive)

The molecule Cc1cc(Cl)ccc1NC(=O)CCl showed log2 ratio of Biotin-Ahx-Ub-VS probe labelling equal to 0.0385 (inactive)

The molecule Cl.O=C(CCl)N1CCn2cncc2C1 showed log2 ratio of Biotin-Ahx-Ub-VS probe labelling equal to 0.0971 (inactive)

The molecule Cl.O=C(CCl)NCc1ccnc(Oc2ccccc2F)c1 showed log2 ratio of Biotin-Ahx-Ub-VS probe labelling equal to -0.589 (inactive)

The molecule O=C(CCl)Nc1ccccc1C(F)(F)F showed log2 ratio of Biotin-Ahx-Ub-VS probe labelling equal to 0.185 (inactive)

The molecule COc1cc(Cl)c(C)cc1NC(=O)CCl showed log2 ratio of Biotin-Ahx-Ub-VS probe labelling equal to -0.06 (inactive)

The molecule O=C(CCl)N1CCC(S(=O)(=O)c2ccc(F)cc2)CC1 showed log2 ratio of Biotin-Ahx-Ub-VS probe labelling equal to 0.256 (inactive)

The molecule O=C(O)C1Cc2ccccc2CN1C(=O)CCl (centres undefined) showed log2 ratio of Biotin-Ahx-Ub-VS probe labelling equal to -0.0826 (inactive)

The molecule CC(NC(=O)CCl)c1cnn(C2CC2)c1 (centres undefined) showed log2 ratio of Biotin-Ahx-Ub-VS probe labelling equal to 0.172 (inactive)

The molecule Cc1ccc2nnc(CNC(=O)CCl)n2c1 showed log2 ratio of Biotin-Ahx-Ub-VS probe labelling equal to 0.00833 (inactive)

The molecule CC(C)n1nccc1NC(=O)CCl showed log2 ratio of Biotin-Ahx-Ub-VS probe labelling equal to 0.237 (inactive)

----------
experimental.target: YOD1 (UniProt Q5VVQ6)
Sequence (whole entry): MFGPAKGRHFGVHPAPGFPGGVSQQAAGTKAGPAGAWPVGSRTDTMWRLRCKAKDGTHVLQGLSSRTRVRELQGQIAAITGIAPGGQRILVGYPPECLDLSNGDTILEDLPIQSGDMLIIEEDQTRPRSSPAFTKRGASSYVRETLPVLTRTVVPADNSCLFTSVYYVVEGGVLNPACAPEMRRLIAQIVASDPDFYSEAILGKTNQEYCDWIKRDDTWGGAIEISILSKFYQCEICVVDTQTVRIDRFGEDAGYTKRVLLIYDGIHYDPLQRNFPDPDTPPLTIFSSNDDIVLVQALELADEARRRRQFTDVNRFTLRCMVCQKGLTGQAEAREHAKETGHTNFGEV
assay.comment: log2 ratio of Biotin-Ahx-Ub-VS probe labelling (fragment/DMSO); higher = less target engagement (more negative = stronger competition), active = hit call of the paper (q ≤ 0.05, log2 ratio ≤ -1)
conditions: compound concentration: 200 uM; treatment time: 3 h
Classify as follows. Reported log2 ratio of Biotin-Ahx-Ub-VS probe labelling greater than or equal to -0.2: yes (1). Reported log2 ratio of Biotin-Ahx-Ub-VS probe labelling below: no (0).

Field: example entries. Status: answers known.
compound | classification
CN1c2ccccc2C(NC(=O)CCl)CS1(=O)=O (stereo not drawn) | yes (1)
O=C(CCl)N1CC2(CCOCC2)C1 | yes (1)
Cl.Cn1cnc2cc(CNC(=O)CCl)ccc21 | yes (1)
O=C(CCl)N1CCOC(CCc2ccccc2)C1 (stereo not drawn) | no (0)
Cl.Cn1c(CNC(=O)CCl)nc2cccnc21 | no (0)

INPUT: I'd appreciate it if you could say whether O=C(CCl)N1CCCC1c1ccsc1 (stereo not drawn) has log2 ratio of Biotin-Ahx-Ub-VS probe labelling at least equal to -0.2.
OUTPUT: yes (1)

INPUT: I'd appreciate it if you could say whether O=C(CCl)Nc1cccc2ncccc12 has log2 ratio of Biotin-Ahx-Ub-VS probe labelling at least equal to -0.2.
OUTPUT: yes (1)

INPUT: I'd appreciate it if you could say whether O=C(CCl)N1CC=C(c2c[nH]c3ccccc23)CC1 has log2 ratio of Biotin-Ahx-Ub-VS probe labelling at least equal to -0.2.
OUTPUT: no (0)

INPUT: I'd appreciate it if you could say whether Cl.O=C(CN1CCN(C(=O)CCl)CC1)Nc1ccc(F)cc1 has log2 ratio of Biotin-Ahx-Ub-VS probe labelling at least equal to -0.2.
OUTPUT: yes (1)

INPUT: I'd appreciate it if you could say whether O=C(CCl)NCCC1COCCO1 (stereo not drawn) has log2 ratio of Biotin-Ahx-Ub-VS probe labelling at least equal to -0.2.
OUTPUT: no (0)
